Molecular target: UniProtKB P20813
Sequence (P20813 1-491): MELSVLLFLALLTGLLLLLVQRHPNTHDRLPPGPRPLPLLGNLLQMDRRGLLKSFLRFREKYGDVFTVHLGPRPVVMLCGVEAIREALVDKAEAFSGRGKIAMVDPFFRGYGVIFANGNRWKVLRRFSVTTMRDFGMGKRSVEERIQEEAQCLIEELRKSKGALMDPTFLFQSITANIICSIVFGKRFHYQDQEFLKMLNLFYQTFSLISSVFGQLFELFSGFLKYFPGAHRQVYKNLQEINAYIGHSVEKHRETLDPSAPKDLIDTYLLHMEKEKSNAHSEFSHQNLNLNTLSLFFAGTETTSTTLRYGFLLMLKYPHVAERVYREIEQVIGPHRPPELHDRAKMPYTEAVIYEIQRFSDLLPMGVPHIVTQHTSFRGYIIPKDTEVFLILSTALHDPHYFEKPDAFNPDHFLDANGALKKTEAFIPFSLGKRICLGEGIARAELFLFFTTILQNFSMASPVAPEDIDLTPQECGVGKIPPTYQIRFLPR
Assay: Inhibition of recombinant CYP2B6 (probe bupropion)
Assay type: in vitro ADME
Settings: IC50 towards CYP2B6, recombinant isozyme; mean ± SD of triplicate; unit not given (IC50 classes in μM)
measured property: IC50

>>> print(df.to_string())
                                   compound  measured_property    result
0  O=C1CCC[C@@H]2[C@H]3CCC[N+]4([O-])CCC[C@@H](CN12)[C@@H]34 (stereo partly shown) [Compound A3, Oxymatrine]               IC50  > 100 µM

----------
assay: Plasma pharmacokinetics in rats after a 30-min intravenous infusion of Kang-Ai injection; assay type: in vivo, Sprague–Dawley rats; details: rat, in vivo, iv
Please respond with label 1 when measured CLtot, p is strictly beneath 50 mL/h, and with label 0 in all other cases.

molecule	label value
CC(C)=CCC[C@](C)(O)[C@H]1CC[C@]2(C)[C@@H]1[C@H](O)C[C@@H]1[C@@]3(C)CC[C@H](O)C(C)(C)[C@@H]3[C@@H](O[C@@H]3O[C@H](CO)[C@@H](O)[C@H](O)[C@H]3O[C@@H]3OC[C@@H](O)[C@H](O)[C@H]3O)C[C@]12C [Compound C3, Notoginsenoside R2]	label 0
O=C1CCCC2=C3CCC[N+]4([O-])CCC[C@@H](CN12)[C@@H]34 (some centres unmarked) [Compound A7, Leontalbinine N-oxide]	label 1
O=c1cccc([C@@H]2C[C@H](CO)[C@H]3CCCCN3C2)[nH]1	label 1
O=C1C=CC[C@@H]2[C@H]3C[C@H](O)CN4CCC[C@@H](CN12)[C@@H]34 [Compound A6, 9α-hydroxysophocarpine]	label 1
O=C1CCC[C@@H]2[C@H]3CCCN4CCC[C@@](O)(CN12)[C@@H]34	label 0

----------
assay: Stability tests of analytes in rat plasma QC samples; assay type: in vitro ADME; conditions: rat plasma, nominal conc. 20 nM
Please respond with 1.0 when measured Short-term stability at room temperature for 6 h, Mean±SD is strictly beneath 20 nM, and with 0.0 in all other cases.

compound	label value
CC(C)=CCC[C@](C)(O)[C@H]1CC[C@]2(C)[C@@H]1[C@H](O)C[C@@H]1[C@@]3(C)CC[C@H](O)C(C)(C)[C@@H]3[C@@H](O[C@@H]3O[C@H](CO)[C@@H](O)[C@H](O)[C@H]3O)C[C@]12C [Compound C1, Ginsenoside Rh1]	0.0
O=C1CCC[C@@H]2[C@H]3CCCN4CCC[C@@H](CN12)[C@@H]34 [Compound A1, Matrine]	0.0
CC(C)=CCC[C@](C)(O[C@@H]1O[C@H](CO)[C@@H](O)[C@H](O)[C@H]1O)[C@H]1CC[C@]2(C)[C@@H]1[C@H](O)C[C@@H]1[C@@]3(C)CC[C@H](O)C(C)(C)[C@@H]3[C@@H](O[C@@H]3O[C@H](CO)[C@@H](O)[C@H](O)[C@H]3O[C@@H]3OC[C@@H](O)[C@H](O)[C@H]3O)C[C@]12C [Compound C8, Notoginsenoside R1]	1.0

----------
test: Stability tests of analytes in rat plasma QC samples; format: in vitro ADME; conditions: rat plasma, nominal conc. 100 nM
measured property: Short-term stability at room temperature for 6 h, Mean±SD

compound	result
CC(C)=CCC[C@](C)(O[C@@H]1O[C@H](CO)[C@@H](O)[C@H](O)[C@H]1O)[C@H]1CC[C@]2(C)[C@@H]1[C@H](O)C[C@@H]1[C@@]3(C)CC[C@H](O)C(C)(C)[C@@H]3[C@@H](O[C@@H]3O[C@H](CO)[C@@H](O)[C@H](O)[C@H]3O[C@@H]3OC[C@@H](O)[C@H](O)[C@H]3O)C[C@]12C [Compound C8, Notoginsenoside R1]	92.24 ± 4.21 nM
O=C1C=CC[C@@H]2[C@H]3CCC[N+]4([O-])CCC[C@@H](CN12)[C@@H]34 (some centres unmarked) [Compound A2, Oxysophocarpine]	103.12 ± 8.16 nM

----------
assay: Stability tests of analytes in rat plasma QC samples; format: in vitro ADME; settings: rat plasma, nominal conc. 400 nM
Each record here notes measured At -80 °C for 48 h, Mean±SD.

compound	At -80 °C for 48 h, Mean±SD (nM)
CC(C)=CCC[C@](C)(O)[C@H]1CC[C@]2(C)[C@@H]1[C@H](O)C[C@@H]1[C@@]3(C)CC[C@H](O)C(C)(C)[C@@H]3[C@@H](O[C@@H]3O[C@H](CO)[C@@H](O)[C@H](O)[C@H]3O[C@@H]3O[C@H](CO)[C@@H](O)[C@H](O)[C@H]3O)C[C@]12C [Compound C7, Ginsenoside Rf]	428.42
CC(C)=CCC[C@](C)(O)[C@H]1CC[C@]2(C)[C@@H]1[C@H](O)C[C@@H]1[C@@]3(C)CC[C@H](O)C(C)(C)[C@@H]3[C@@H](O[C@@H]3O[C@H](CO)[C@@H](O)[C@H](O)[C@H]3O)C[C@]12C [Compound C1, Ginsenoside Rh1]	379.88
CC(C)=CCC[C@](C)(O[C@@H]1O[C@H](CO[C@@H]2O[C@H](CO)[C@@H](O)[C@H](O)[C@H]2O)[C@@H](O)[C@H](O)[C@H]1O)[C@H]1CC[C@]2(C)[C@@H]1[C@H](O)C[C@@H]1[C@@]3(C)CC[C@H](O[C@@H]4O[C@H](CO)[C@@H](O)[C@H](O)[C@H]4O[C@@H]4O[C@H](CO)[C@@H](O)[C@H](O)[C@H]4O)C(C)(C)[C@@H]3CC[C@]12C [Compound D5, Ginsenoside Rb1]	428.49
CC(C)=CCC[C@](C)(O[C@@H]1O[C@H](CO)[C@@H](O)[C@H](O)[C@H]1O)[C@H]1CC[C@]2(C)[C@@H]1[C@H](O)C[C@@H]1[C@@]3(C)CC[C@H](O[C@@H]4O[C@H](CO)[C@@H](O)[C@H](O)[C@H]4O[C@@H]4O[C@H](CO)[C@@H](O)[C@H](O)[C@H]4O)C(C)(C)[C@@H]3CC[C@]12C [Compound D2, Ginsenoside Rd]	419.98
CC(C)=CCC[C@](C)(O[C@@H]1O[C@H](CO)[C@@H](O)[C@H](O)[C@H]1O)[C@H]1CC[C@]2(C)[C@@H]1[C@H](O)C[C@@H]1[C@@]3(C)CC[C@H](O)C(C)(C)[C@@H]3[C@@H](O[C@@H]3O[C@H](CO)[C@@H](O)[C@H](O)[C@H]3O[C@@H]3OC[C@@H](O)[C@H](O)[C@H]3O)C[C@]12C [Compound C8, Notoginsenoside R1]	413.01
O=C1C=CC[C@@H]2[C@H]3CCC[N+]4([O-])CCC[C@@H](CN12)[C@@H]34 (stereo partly shown)	437.15
CC(C)=CCC[C@](C)(O)[C@H]1CC[C@]2(C)[C@@H]1[C@H](O)C[C@@H]1[C@@]3(C)CC[C@H](O)C(C)(C)[C@@H]3[C@@H](O[C@@H]3O[C@H](CO)[C@@H](O)[C@H](O)[C@H]3O[C@@H]3O[C@@H](C)[C@H](O)[C@@H](O)[C@H]3O)C[C@]12C [Compound C5, Ginsenoside Rg2]	410.70

----------
assay: Plasma pharmacokinetics in rats after a 30-min intravenous infusion of Kang-Ai injection; format: in vivo, Sprague–Dawley rats; conditions: male, Sprague-Dawley, rat, in vivo, iv
Each record here notes measured half-life.

compound	readout units	half-life
O=C1CCC[C@@H]2[C@H]3CCC[N+]4([O-])CCC[C@@H](CN12)[C@@H]34 (stereo partly drawn) [Compound A3, Oxymatrine]	h	2.73
CC(C)=CCC[C@](C)(O)[C@H]1CC[C@]2(C)[C@@H]1[C@H](O)C[C@@H]1[C@@]3(C)CC[C@H](O)C(C)(C)[C@@H]3[C@@H](O[C@@H]3O[C@H](CO)[C@@H](O)[C@H](O)[C@H]3O[C@@H]3O[C@H](CO)[C@@H](O)[C@H](O)[C@H]3O)C[C@]12C [Compound C7, Ginsenoside Rf]	h	0.63
CC(C)=CCC[C@](C)(O)[C@H]1CC[C@]2(C)[C@@H]1[C@H](O)C[C@@H]1[C@@]3(C)CC[C@H](O)C(C)(C)[C@@H]3[C@@H](O[C@@H]3O[C@H](CO)[C@@H](O)[C@H](O)[C@H]3O[C@@H]3O[C@@H](C)[C@H](O)[C@@H](O)[C@H]3O)C[C@]12C [Compound C5, Ginsenoside Rg2]	h	9.77

Where do these numbers come from? They come from paper PMC7339578.
